system.name: JNK3 (Homo sapiens, UniProt P53779)
Sequence (P53779 whole entry): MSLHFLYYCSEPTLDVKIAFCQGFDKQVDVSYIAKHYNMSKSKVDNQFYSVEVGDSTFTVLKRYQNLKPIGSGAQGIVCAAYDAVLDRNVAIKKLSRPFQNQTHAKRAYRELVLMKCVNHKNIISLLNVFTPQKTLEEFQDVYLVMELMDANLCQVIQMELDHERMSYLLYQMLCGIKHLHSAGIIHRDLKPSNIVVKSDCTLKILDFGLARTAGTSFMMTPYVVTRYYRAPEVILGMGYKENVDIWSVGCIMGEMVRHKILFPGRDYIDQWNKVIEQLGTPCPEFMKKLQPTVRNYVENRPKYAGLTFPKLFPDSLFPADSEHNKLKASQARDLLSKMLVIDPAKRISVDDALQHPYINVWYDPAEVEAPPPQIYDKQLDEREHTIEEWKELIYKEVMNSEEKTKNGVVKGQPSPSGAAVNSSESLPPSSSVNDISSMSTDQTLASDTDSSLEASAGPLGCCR
pKd: −log10 of the molar value.

{"smiles.code": "COC(=O)Nc1nc2ccc(C(=O)c3ccccc3)cc2[nH]1", "pKd": 6.38}

====

system.name: PDGFRB (Homo sapiens)
Sequence (P09619 33-1106): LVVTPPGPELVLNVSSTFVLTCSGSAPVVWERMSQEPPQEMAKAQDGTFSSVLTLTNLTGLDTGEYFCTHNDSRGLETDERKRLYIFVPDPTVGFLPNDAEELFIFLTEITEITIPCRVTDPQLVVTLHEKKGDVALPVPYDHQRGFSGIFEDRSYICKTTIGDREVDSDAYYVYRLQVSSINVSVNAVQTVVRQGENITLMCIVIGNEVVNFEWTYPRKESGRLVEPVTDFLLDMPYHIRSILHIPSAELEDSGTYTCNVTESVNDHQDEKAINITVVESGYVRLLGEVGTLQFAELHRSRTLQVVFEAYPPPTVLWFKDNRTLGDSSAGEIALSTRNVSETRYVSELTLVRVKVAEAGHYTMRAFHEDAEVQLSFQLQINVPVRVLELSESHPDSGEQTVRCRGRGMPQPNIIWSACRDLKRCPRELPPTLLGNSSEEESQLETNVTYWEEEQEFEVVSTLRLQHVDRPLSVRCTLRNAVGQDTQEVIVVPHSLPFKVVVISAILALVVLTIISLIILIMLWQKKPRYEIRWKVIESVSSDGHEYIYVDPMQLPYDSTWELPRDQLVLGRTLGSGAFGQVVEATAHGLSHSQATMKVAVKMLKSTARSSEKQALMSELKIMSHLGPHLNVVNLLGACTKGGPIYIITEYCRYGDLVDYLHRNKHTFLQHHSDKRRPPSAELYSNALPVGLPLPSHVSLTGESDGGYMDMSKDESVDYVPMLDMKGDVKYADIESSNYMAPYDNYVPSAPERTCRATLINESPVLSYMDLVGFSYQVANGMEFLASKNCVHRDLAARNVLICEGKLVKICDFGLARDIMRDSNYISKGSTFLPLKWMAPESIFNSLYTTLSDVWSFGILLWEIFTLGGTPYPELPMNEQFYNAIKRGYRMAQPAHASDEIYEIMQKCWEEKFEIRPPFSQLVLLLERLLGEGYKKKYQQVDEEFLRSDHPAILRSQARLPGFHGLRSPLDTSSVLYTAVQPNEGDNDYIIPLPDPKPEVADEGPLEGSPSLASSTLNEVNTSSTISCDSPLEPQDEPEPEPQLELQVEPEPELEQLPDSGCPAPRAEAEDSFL

{"smiles.code": "COC(=O)Nc1nc2ccc(C(=O)c3ccccc3)cc2[nH]1", "Kd (nM)": 560}

====

system.name: UniProt:P16234
Sequence (P16234 24-1089): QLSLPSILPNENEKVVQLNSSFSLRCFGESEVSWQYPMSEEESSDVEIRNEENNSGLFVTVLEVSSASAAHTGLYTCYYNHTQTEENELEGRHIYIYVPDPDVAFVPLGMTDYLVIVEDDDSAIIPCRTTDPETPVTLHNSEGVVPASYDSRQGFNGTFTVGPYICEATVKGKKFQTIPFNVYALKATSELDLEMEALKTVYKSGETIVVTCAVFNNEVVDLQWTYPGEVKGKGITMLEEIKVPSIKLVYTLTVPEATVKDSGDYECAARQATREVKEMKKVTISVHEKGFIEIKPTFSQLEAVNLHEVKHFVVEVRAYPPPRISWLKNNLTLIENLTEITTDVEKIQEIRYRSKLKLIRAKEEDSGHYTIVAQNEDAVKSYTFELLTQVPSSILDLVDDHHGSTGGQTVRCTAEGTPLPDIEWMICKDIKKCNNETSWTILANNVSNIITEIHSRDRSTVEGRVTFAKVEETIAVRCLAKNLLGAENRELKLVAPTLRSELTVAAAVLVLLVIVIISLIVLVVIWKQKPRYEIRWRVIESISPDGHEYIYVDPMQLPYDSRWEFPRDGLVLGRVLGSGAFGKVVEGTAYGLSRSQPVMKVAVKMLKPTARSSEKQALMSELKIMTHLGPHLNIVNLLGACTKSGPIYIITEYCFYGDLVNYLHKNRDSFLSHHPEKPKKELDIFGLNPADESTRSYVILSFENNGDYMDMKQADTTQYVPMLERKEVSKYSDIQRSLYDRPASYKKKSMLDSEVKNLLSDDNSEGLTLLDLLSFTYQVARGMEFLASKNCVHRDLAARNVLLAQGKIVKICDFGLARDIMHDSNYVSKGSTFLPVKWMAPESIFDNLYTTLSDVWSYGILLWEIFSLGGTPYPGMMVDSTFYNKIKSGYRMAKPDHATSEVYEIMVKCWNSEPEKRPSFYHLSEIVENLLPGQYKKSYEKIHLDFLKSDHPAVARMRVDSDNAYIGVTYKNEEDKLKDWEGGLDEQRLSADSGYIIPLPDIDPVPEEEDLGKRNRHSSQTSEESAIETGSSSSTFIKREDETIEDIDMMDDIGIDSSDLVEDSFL
parameter.measured: Kd

{"smiles.code": "COC(=O)Nc1nc2ccc(C(=O)c3ccccc3)cc2[nH]1", "observed.value": "340 nM"}

====

system.name: BRAF(V600E) (Homo sapiens, UniProt P15056, V600E)
Construct: purchased Discoverx (KINOMEscan service)
Sequence (P15056 whole entry V600E): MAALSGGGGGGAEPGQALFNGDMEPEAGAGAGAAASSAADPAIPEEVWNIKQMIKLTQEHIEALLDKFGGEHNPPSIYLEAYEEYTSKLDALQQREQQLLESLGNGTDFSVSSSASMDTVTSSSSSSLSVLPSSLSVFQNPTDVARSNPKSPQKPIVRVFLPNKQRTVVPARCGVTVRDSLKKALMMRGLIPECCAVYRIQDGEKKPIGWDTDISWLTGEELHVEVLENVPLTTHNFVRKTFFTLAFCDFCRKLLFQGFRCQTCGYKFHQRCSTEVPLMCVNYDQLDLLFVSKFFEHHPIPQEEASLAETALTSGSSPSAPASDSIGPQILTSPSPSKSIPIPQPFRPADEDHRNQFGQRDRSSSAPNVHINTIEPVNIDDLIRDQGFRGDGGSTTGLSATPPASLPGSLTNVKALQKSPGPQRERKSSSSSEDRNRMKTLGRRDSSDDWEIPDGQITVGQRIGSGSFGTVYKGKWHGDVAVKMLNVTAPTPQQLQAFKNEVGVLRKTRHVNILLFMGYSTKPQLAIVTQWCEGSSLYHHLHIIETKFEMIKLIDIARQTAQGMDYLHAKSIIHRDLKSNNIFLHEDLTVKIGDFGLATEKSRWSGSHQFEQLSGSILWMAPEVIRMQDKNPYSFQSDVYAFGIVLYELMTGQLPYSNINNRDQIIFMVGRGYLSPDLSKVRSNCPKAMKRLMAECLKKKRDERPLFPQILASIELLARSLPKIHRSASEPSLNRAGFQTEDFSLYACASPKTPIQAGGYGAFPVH
assay.comment: KINOMEscan binding assay
condition.details: average of two determinations
Method: The binding affinities of ABZ and MBZ were tested at 10 μM in a high-throughput binding assay (KINOMEscan, Discoverx, CA, USA) against a panel of 97 kinases tagged with DNA (Davis et al. [2011]). Compounds that bind the kinase active site and directly or indirectly prevent kinase binding to an immobilized ligand will reduce the amount of kinase captured on solid support. […]
pKd: −log10 of the molar value.

{"smiles.code": "COC(=O)Nc1nc2ccc(C(=O)c3ccccc3)cc2[nH]1", "pKd": 6.60}

====

system.name: ABL1(T315I) phosphorylated (Homo sapiens, UniProt P00519, T315I)
assay.comment: KINOMEscan binding assay
condition.details: average of two determinations

{"smiles.code": "COC(=O)Nc1nc2ccc(C(=O)c3ccccc3)cc2[nH]1", "unit.spec": "µM", "Kd": 0.17}

====

system.name: BRAF (Homo sapiens)
Sequence (P15056 whole entry): as the sequence (P15056 whole entry V600E) above, with E600V counted along it

{"smiles.code": "COC(=O)Nc1nc2ccc(C(=O)c3ccccc3)cc2[nH]1", "unit.spec": "nM", "Kd": 190}
